The measured values listed here are drawn from paper PMC3646298.

# assay_method_text: in vitro
# measurement_context: human, Caco-2

| record_smiles | Papp A→B |
| --- | --- |
| COc1cc(C(=O)c2csc(Nc3ccc4[nH]ccc4c3)n2)cc(OC)c1OC | 990 nm/s |

---

# assay_method_text: in vivo
# measurement_context: male (mice), female (rats, dogs), ICR (mouse), Sprague-Dawley (rat), beagle (dog), po

| record_smiles | bioavailability |
| --- | --- |
| COc1cc(C(=O)c2csc(Nc3ccc4[nH]ccc4c3)n2)cc(OC)c1OC | 24 to 36% |

---

# assay_method_text: in vivo
# measurement_context: female, beagle, dog, plasma, po, 5 mg/kg
property: bioavailability (%)

| record_smiles | units_of_measure | reported |
| --- | --- | --- |
| COc1cc(C(=O)c2csc(Nc3ccc4[nH]ccc4c3)n2)cc(OC)c1OC | % | 36 |

---

# assay_method_text: Paclitaxel-resistant PC-3/TxR tumor xenograft study
# Type: in vivo, nude mice
# measurement_context: male, athymic nude, mouse, tumor, po, 30 mg/kg

| record_smiles | Kp at 1 h |
| --- | --- |
| COc1cc(C(=O)c2csc(Nc3ccc4[nH]ccc4c3)n2)cc(OC)c1OC | 0.43 |
